Origin of measurements: patent US20100120810A1

Target: Rac1b (Homo sapiens)
Construct: GST (N); made in house; host or cells: E. coli BL21 Codon+RIL
Experiment: Nucleotide binding assay: BODIPY-GTP binding to Rac1b
Type: biochemical
Conditions: final concentration of 50 μM; read-out: Rac1b % inhibition of BODIPY-GTP binding
Structures can show the parent of a compound that is named as a salt.
Classification by inhibition at 50 µM | ranges: class 1 = under 10%, class 2 = from 10% up to 20%, class 3 = 20% and over

For orientation, consider the following solved cases.
Compound	Label
COc1cc2cc(-c3ccccc3)nc(C)c2cc1OC [Compound 44]	class 1
COc1cc2cc(-c3cccc(C(C)=O)c3)nc(C)c2cc1OC [Compound 24, hydrochloride]	class 3
COc1cc2c(cc1OC)CN(Cc1cccc(OC)c1OC)CC2 [Compound 7, hydrochloride]	class 1
COc1cc(-c2cc3cc(OC)c(OC)cc3c(C)n2)ccc1O [Compound 47, hydrochloride]	class 2
COc1cc2cc(-c3ccccc3N)nc(C)c2cc1OC [Compound 37, dihydrochloride]	class 2

*Q* The entry to classify is COc1cc2cc(-c3ccc4c(c3)OCO4)nc(C)c2cc1OC [Compound 21, hydrochloride] ; which class holds it?
*A* class 2

*Q* Would you mind sorting Cl.Oc1cc2c(cc1O)CN(Cc1cccc(O)c1O)CC2 [Compound 19] into the appropriate category?
*A* class 2

*Q* Band for COc1ccc2c(c1OC)C(c1ccccc1)N1CCc3cc4c(cc3C1=C2)OCO4 (centres unmarked) [Compound 10] ?
*A* class 3

*Q* Categorize the following entry: COc1cc2cc(-c3cccc(C(C)=O)c3)[n+](C)c(C)c2cc1OC [Compound 25]
*A* class 3

*Q* Which class does Cc1c2cc(O)c(O)cc2cc2c3cc(O)c(O)cc3cc[n+]12 [Compound 15] fall in?
*A* class 3

----------
Catalogue of inhibition at 50 µM readings, one per entry.
Molecular target: Rac1b (Homo sapiens)
Construct: GST (N); made in house; host or cells: E. coli BL21 Codon+RIL
Test: Nucleotide binding assay: BODIPY-GTP binding to Rac1b
Assay type: biochemical
Settings: final concentration of 50 μM; read-out: Rac1b % inhibition of BODIPY-GTP binding
Counter-ions that a name gives are not always drawn.
Report the value in % with no unit label.

*Q* Returns the measured inhibition at 50 µM for the input compound. Input: Cc1c2cc(O)c(O)cc2cc(-c2ccc(O)c(O)c2)[n+]1C [Compound 45]
*A* 36

*Q* Fill in the blank: the reported inhibition at 50 µM of COc1cc2cc(-c3ccc(C(=O)OC(C)C)cc3)nc(C)c2cc1OC [Compound 32, hydrochloride] is ____.
*A* 10

*Q* Entry COc1ccc2c(c1OC)C(Cc1ccccc1)N1CCc3cc4c(cc3C1=C2)OCO4 (centres unmarked) [Compound 11] : reported inhibition at 50 µM = ?
*A* -2

----------
Catalogue of pIC50 readings, one per entry.
System: HCT116 cell line
Assay: Soft agar assay (anchorage-independent colony formation)
Format: cell-based
Settings: HCT116, 7 days; read-out: Soft agar assay IC50, Clone Size
Just so you know, pIC50 here is -log10 of the concentration in molar units; reply with that number alone.

Molecule	pIC50
O=c1cc(CN2CCOCC2)occ1OCCCCCSc1ccnc2cc(C(F)(F)F)ccc12 [EHT 1864, reference compound]	4.71

Moving on to the next molecule.
*Q* pIC50 lookup needed for CCN(CC)CCCC(C)Nc1nc(C)cc(Nc2ccc3nc(C)cc(N)c3c2)n1 (centres unmarked) [NSC 23766, reference compound] , thanks.
*A* 4.55
